Item-by-item account of inhibition at 1 µM
Molecular target: recombinant BRD4 (BD1 + BD2) (Homo sapiens, UniProt O60885)
Construct: employing a recombinant BRD4 (BD1 + BD2) and its corresponding ligand
Assay: BRD4 TR-FRET activity assay;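 further: signal rises with BET ligand binding to the bromodomains, so inhibitors lower it, 120 min incubation at room temperature, 1% DMSO, wells lacking ligand as negative control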
Assay type: binding
Conditions: 1 μmol/L; read-out: BRD4 inhibition rate
API: value field is a number in %; no unit string.

// inhibition at 1 µM lookup, key: `Cc1noc(C)c1-c1cc(Cc2n[nH]c(=O)c3ccccc23)cc(NS(=O)(=O)c2ccc(C(C)C)cc2)c1` 69

// inhibition at 1 µM lookup, key: `Cc1noc(C)c1-c1cc(Cc2n[nH]c(=O)c3ccccc23)cc(NS(=O)(=O)c2ccc(C(C)(C)C)cc2)c1` 44

// inhibition at 1 µM lookup, key: `Cc1cccc(C(=O)Nc2cc(Cc3n[nH]c(=O)c4ccccc34)cc(-c3c(C)noc3C)c2)c1` 91

// inhibition at 1 µM lookup, key: `Cc1noc(C)c1-c1cc(Cc2n[nH]c(=O)c3ccccc23)cc(NS(=O)(=O)c2ccc3c(c2)OCCO3)c1` 67

====

Item-by-item account of melting point

// melting point lookup, key: `CCCCS(=O)(=O)Nc1cc(Cc2n[nH]c(=O)c3ccccc23)cc(-c2c(C)noc2C)c1` 147 to 148 °C

// melting point lookup, key: `Cc1noc(C)c1-c1cc(Cc2n[nH]c(=O)c3ccccc23)cc(NS(=O)(=O)c2ccccc2Cl)c1` 174 to 175 °C

// melting point lookup, key: `Cc1noc(C)c1-c1cc(Cc2n[nH]c(=O)c3ccccc23)cc(C(=O)Nc2ccccc2)c1` 192 to 193 °C

// melting point lookup, key: `Cc1noc(C)c1-c1cc(Cc2n[nH]c(=O)c3ccccc23)cc(NS(=O)(=O)c2ccc(OCc3ccccc3)cc2)c1` 148 to 149 °C

// melting point lookup, key: `Cc1cc(C)cc(S(=O)(=O)Nc2cc(Cc3n[nH]c(=O)c4ccccc34)cc(-c3c(C)noc3C)c2)c1` 155 to 156 °C

// melting point lookup, key: `Cc1noc(C)c1-c1cc(Cc2n[nH]c(=O)c3ccccc23)cc(C(=O)NC2CCCC2)c1` > 250 °C
